test system: MS2 coat protein; experiment: apparent KD of MS2 coat protein; designed switch direction (-1 OFF switch, 1 ON switch): -1; higher = weaker reporter binding; settings: Eterna round: R95; input ligand: FMN 200 uM
We begin with a simple list: items and their reported apparent KD of MS2 coat protein.
reported_endpoint: apparent KD of MS2 coat protein (nM)

INSERT INTO results (biosequence, unit_annotation, test_value) VALUES
  ('UAACAGCGAGGAUAUACAUGAGGAUCACCCAUGUACGGGUCCGGGUUUUCGUCCAAAAGUAGAAGGCGCAAUAA [Laongeedte] (puzzle: Exclusion 3)', 'nM', 177),
  ('AAAACAAACUUUUUGCUCGUCUUAUAUGACGCUCGAGUCACAUGAGGAUCACCCAUGUCUUCCUGUUUGAUAGUUGA [JR_SV3TOV2_Sub055] (puzzle: Sensor v3, turn-off variant 2)', 'nM', 113),
  ('AAGAAACAUGAGGAUCACCCAUGUGAGGAUAUGAAUAAGAAAAGAAAAGAAAGAAGAAUCAGAAGGCACAAAGG [salish99-ex1_r3_045] (puzzle: Exclusion 1)', 'nM', 49.5),
  ('AAGAAACAUGAGGAUCACCCAUGUGAGGAUAUGAAAAAUAAAAGAAAAGAAAGAAUAAUCAGAAGGCACAAAGG [Mat - Mod of Hog D10] (puzzle: Exclusion 1)', 'nM', 51.4),
  ('AAAAAGGCAGGAUAUACAUGAGGAUCACCCAUGUGAAAAAACAAAAAAAAAAAAAAAGGUAGAAGGGCCGAAAA [Science Triplets #3] (puzzle: Exclusion 3)', 'nM', 22.1),
  ('AGAUGGCGAGGAUAUACAUGAGGAUCACCCAUGUGAGAUAAUAAAGUGAGGAAGAAAAGUAGAAGGCGCUGUCA [Mat - Exclusion 3 - Mod of Salish D13] (puzzle: Exclusion 3)', 'nM', 221),
  ('GAUUGACAUGAGGAUCACCCAUGUGAGGAUAUCGGCCGGACCGUGCCGGCUUCCGUCGCGAGAAGGCGCAUAGG [Exclusion 1 V40] (puzzle: Exclusion 1)', 'nM', 49.5),
  ('UGUACGAUGCGUGCUGACAUGCGUCGUGCAGCAGGUGGAACAUGAGGAUCACCCAUGUCCUCAUUUGCUCGUCUUAU [Mat - Sensor v3 - Turn-off var 2 - D21] (puzzle: Sensor v3, turn-off variant 2)', 'nM', 35.2),
  ('CCGAAGUGGCGGUCCUAUGACAUGAGGAUCACCCAUGUACUUCGCCACGAGCUUUUUGCUCGUCUUAUAGUUCUCGG [Sensor v3, turn-off variant 1 (MOD of Ator)] (puzzle: Sensor v3, turn-off variant 1)', 'nM', 435),
  ('AAAAAGAUAGGAUAUACAAUAAAAUAAAAUAAAAUAAAUACACAUGAGGAUCACCCAUGUAGAAGGAUCGAAAA [Exclusion 2 #1] (puzzle: Exclusion 2)', 'nM', 26.6),
  ('GGUUGGCGAGGAUAUACAUGAGGAUCACCCAUGUGAGAGAAACUAGUGAGGUCGAUUGGUAGAAGGCGCUGACG [Mat - Exclusion 3 - Mod of JL D81] (puzzle: Exclusion 3)', 'nM', 25.3),
  ('GAUUAUGCGAGCUUUAGGGACAUGAGGAUCACCCAUGUUCGUCUUAUUGGUCUGAAUACACUAACAUACCUAAAUCU [JMF 11] (puzzle: Sensor v3, turn-off variant 1)', 'nM', 17.4),
  ('CAGGUGUUAGGAUAUCGGAGAUCGAGGCCGACGGGAAAAGCCGAGAAGGAACAUGAGGAUCACCCAUGUAGGUG [JR_Exclu4_Sub035] (puzzle: Exclusion 4)', 'nM', 347),
  ('CUUCAUCCACCAGAGCUCACACUUAUACCUGCUCUGGUGACAUGAGGAUCACCCAUGUUUUUUGCCCGUCUUAUCUU [Sensor v3, turn-off variant 2 (MOD of Leso)] (puzzle: Sensor v3, turn-off variant 2)', 'nM', 149),
  ('AGUACUAUGCGAGCUGACUUGCGUAGUGCAGCAGGUGAAACAUGAGGAUCACCCAUGUCCUCAUUUGCUCGUCUUAA [Mat - Sensor v3 - Turn-off var 2 - D3] (puzzle: Sensor v3, turn-off variant 2)', 'nM', 39.7),
  ('AGUAGUUGUUUCCGUUCUUACAUGAGGAUCACCCAUGUUUCUUGUCGUGCUCGCGUUGCUCGUCAGACUACCAGAUG [salish99_TOv1_r3_060] (puzzle: Sensor v3, turn-off variant 1)', 'nM', 51.1),
  ('GUGGUGACAGGAUAUACAUGAGGAUCACCCAUGUGAGGAGGACGAGACAGGUGAAGGAGUAGAAGGGUCAGAGG [JR_Exclu3_Sub027] (puzzle: Exclusion 3)', 'nM', 66.7),
  ('UAUUAACAAGCUAGAUCUUACAUGAGGAUCACCCAUGUGCUCGUCUUAUAAGGUACUGUGACGAAAGUCACGGUACC [Sensor 3, v1 - 77] (puzzle: Sensor v3, turn-off variant 1)', 'nM', 22.7),
  ('GAAAAGGUAGGAUAUACGAAAAAAAAGGGUAGUAAAAAAACACAUGAGGAUCACCCAUGUAGAAGGACCAAAAG [salish99_ex2_r3_079] (puzzle: Exclusion 2)', 'nM', 35.7),
  ('CGAUGUUAUGUCAGGAUAUGCGUUGCGAAAGCAAUGUAGAAGGGACAUGAGGAUCACCCAUGUCCUAACCAUCG [Omei A 8] (puzzle: Brourd''s mod of Exclusion 4)', 'nM', 15.1);

Data provenance: the supplement of paper PMC9170038
